TESTED_ON: T1, EINosite peptide (Streptomyces coelicolor, C-terminal amidation)
T1 chain: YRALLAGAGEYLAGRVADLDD
ASSAY_SUMMARY: ITC
METRIC: pKd
Please report pKd as the negative decimal logarithm of the molar concentration, giving only the number.

## Task State its pKd for this binder: HPrbs (histidine phosphocarrier protein) (protein) MKTQQFTVIDPLGIHARPASQLVAKATPFASAIEVRTEEKAANLKSILGVMGLALKQGSQFTLYVEGEDEDQAFEALATLLTEMGLAQ
## Result 5.52
